speed of sound for assorted molecules
Details: 292.65 K; 101.33 kPa; Liquid; Pulse-echo method
Record the value in m/s, omitting the unit from your answer.

Examples with their reported speed of sound follow.
MOLECULE: CCC(=O)[O-].C[NH2+]CCO [2-hydroxy-N-methylethanaminium propionate]
QUANTITY_NAME: speed of sound
NUMERIC_RESULT: 1706.4

MOLECULE: CCCCC(=O)[O-].C[NH2+]CCO [2-hydroxy-N-methylethanaminium pentanoate]
QUANTITY_NAME: speed of sound
NUMERIC_RESULT: 1566.3

MOLECULE: CC(C)C(=O)[O-].C[NH2+]CCO [2-hydroxy-N-methylethanaminium isobutyrate]
QUANTITY_NAME: speed of sound
NUMERIC_RESULT: 1626.9

MOLECULE: C[NH2+]CCO.O=C[O-] [2-hydroxy-N-methylethanaminium formate]
QUANTITY_NAME: speed of sound
NUMERIC_RESULT: 1826.1

Read the next record carefully.
Q. Given the molecule CCCC(=O)[O-].C[NH2+]CCO [N-methyl-2-hydroxyethylammonium butanoate] , write its reported speed of sound.
A. 1632.3

* * *

Details: 288.9 K; 101.33 kPa; Liquid; Vibrating tube method
mass density for assorted compounds
Record the value in kg/m3, omitting the unit from your answer.

COMPOUND: CC(=O)[O-].C[NH2+]CCO [N-methyl-2-hydroxyethylammonium acetate]
NUMERIC_RESULT: 1106.35
//
COMPOUND: C[NH2+]CCO.O=C[O-] [2-hydroxy-N-methylethanaminium formate]
NUMERIC_RESULT: 1133.41

Q. Given the compound CCCC(=O)[O-].C[NH2+]CCO [N-methyl-2-hydroxyethylammonium butanoate] , write its reported mass density.
A. 1045.5

Q. Given the compound CCCCC(=O)[O-].C[NH2+]CCO [2-hydroxy-N-methylethanaminium pentanoate] , write its reported mass density.
A. 1022.48

Q. Given the compound CCC(=O)[O-].C[NH2+]CCO [2-hydroxy-N-methylethanaminium propionate] , write its reported mass density.
A. 1077.3

Q. Given the compound CC(C)C(=O)[O-].C[NH2+]CCO [2-hydroxy-N-methylethanaminium isobutyrate] , write its reported mass density.
A. 1049.19

* * *

speed of sound for assorted compounds
Settings: 338.15 K; 101.33 kPa; Liquid; Pulse-echo method
Record the value in m/s, omitting the unit from your answer.

Examples with their reported speed of sound follow.
COMPOUND: CCCC(=O)[O-].C[NH2+]CCO [N-methyl-2-hydroxyethylammonium butanoate]
speed of sound / m/s: 1489.3
--
COMPOUND: CC(C)C(=O)[O-].C[NH2+]CCO [2-hydroxy-N-methylethanaminium isobutyrate]
speed of sound / m/s: 1497.7
--
COMPOUND: C[NH2+]CCO.O=C[O-] [2-hydroxy-N-methylethanaminium formate]
speed of sound / m/s: 1738.6
--
COMPOUND: CCCCC(=O)[O-].C[NH2+]CCO [2-hydroxy-N-methylethanaminium pentanoate]
speed of sound / m/s: 1425.6

Read the next record carefully.
Q. Given the compound CCC(=O)[O-].C[NH2+]CCO [2-hydroxy-N-methylethanaminium propionate] , write its reported speed of sound.
A. 1570.6

* * *

mass density for assorted compounds
Settings: 324.41 K; 101.33 kPa; Liquid; Vibrating tube method
Record the value in kg/m3, omitting the unit from your answer.

Examples with their reported mass density follow.
COMPOUND: CC(=O)[O-].C[NH2+]CCO [N-methyl-2-hydroxyethylammonium acetate]
QUANTITY_NAME: mass density
NUMERIC_RESULT: 1084.84

COMPOUND: CCCC(=O)[O-].C[NH2+]CCO [N-methyl-2-hydroxyethylammonium butanoate]
QUANTITY_NAME: mass density
NUMERIC_RESULT: 1021.39

COMPOUND: CC(C)C(=O)[O-].C[NH2+]CCO [2-hydroxy-N-methylethanaminium isobutyrate]
QUANTITY_NAME: mass density
NUMERIC_RESULT: 1026.19

Q. Given the compound CCC(=O)[O-].C[NH2+]CCO [2-hydroxy-N-methylethanaminium propionate] , write its reported mass density.
A. 1053.97

Q. Given the compound CCCCC(=O)[O-].C[NH2+]CCO [2-hydroxy-N-methylethanaminium pentanoate] , write its reported mass density.
A. 998.367

Q. Given the compound C[NH2+]CCO.O=C[O-] [2-hydroxy-N-methylethanaminium formate] , write its reported mass density.
A. 1113.65
